- EXPERIMENTAL SETUP: 100.0 µM
EXPERIMENTAL ENDPOINT: relative solubility at 100 uM
Write no unit; give the number alone.

COMPOUND | relative solubility at 100 uM
O=C(NCc1ccno1)c1ccccc1Oc1ccc(Cl)cc1Cl | 0.96

Data request: Tell us which relative solubility at 100 uM value is on record for Cc1ccncc1NC(=O)Cc1cccc(C(N)=O)c1
Data returned: 1.01

Data request: Tell us which relative solubility at 100 uM value is on record for COCc1cc(Cl)cc(CN2CCN(C(=O)CCl)CC2)c1
Data returned: 0.99

Data request: Tell us which relative solubility at 100 uM value is on record for O=C(Cc1c[nH]c2ncccc12)N1CCC(N2CCCS2(=O)=O)CC1
Data returned: 1.01

Data request: Tell us which relative solubility at 100 uM value is on record for O=S(=O)(Cc1ccc(F)cc1)Nc1cccnc1
Data returned: 1

Data request: Tell us which relative solubility at 100 uM value is on record for CN(Cc1ccc(OCc2cccs2)cc1)C(=O)Cn1nnc2ccccc21
Data returned: -0.05

----------
- EXPERIMENTAL SETUP: 20.0 µM
EXPERIMENTAL ENDPOINT: relative solubility at 20 uM
Write no unit; give the number alone.

Worked examples follow.
COMPOUND | relative solubility at 20 uM
CC(=O)N1CCN(S(=O)(=O)C2=CC[SH]=C2)CC1 | 0.99
CN(C)C(=O)C[C@@H]1CN(C(=O)c2cnn3c2CCC3)c2ccc(Cl)cc21 (stereo in doubt) | 1
N#Cc1cccc(CN2CCN(C(=O)CCl)CC2)c1 | 1.01

Data request: Tell us which relative solubility at 20 uM value is on record for Cc1ccc(NCc2cc(NC(=O)OC(C)(C)C)ccc2Br)cn1
Data returned: 0.9

Data request: Tell us which relative solubility at 20 uM value is on record for O=C(COc1ccccc1)NCCc1ccccc1
Data returned: 1

Data request: Tell us which relative solubility at 20 uM value is on record for Cc1nnc(NC(=O)[C@@H]2COc3ccc(Cl)cc32)n1C1CC1 (stereo in doubt)
Data returned: 1

Data request: Tell us which relative solubility at 20 uM value is on record for CN(CC1COc2ccccc2O1)C(=O)c1cc(=O)[nH]c2ccc(F)cc12 (stereo unspecified)
Data returned: 0.99

Data request: Tell us which relative solubility at 20 uM value is on record for CCCC(C(=O)Nc1cnccc1C)c1cccc(Cl)c1 (stereo unspecified)
Data returned: 1

Data request: Tell us which relative solubility at 20 uM value is on record for COC(=O)C(Cc1ccccc1)C(C)NC(=O)C(C)n1ccnc1 (stereo unspecified)
Data returned: 1

Data request: Tell us which relative solubility at 20 uM value is on record for C=CC(=O)N(c1ccc(C(C)(C)CC)cc1)C(C(=O)Nc1ccc(Br)cc1)c1cccnc1 (stereo unspecified)
Data returned: 0.91

Data request: Tell us which relative solubility at 20 uM value is on record for O=C(NCc1cncs1)Nc1cccc(N2CCOCC2)c1
Data returned: 1

Data request: Tell us which relative solubility at 20 uM value is on record for CC(=O)N[C@@H](Cc1ccc(O)cc1)C(=O)NCc1ccc(Br)cc1 (stereo in doubt)
Data returned: 1

Data request: Tell us which relative solubility at 20 uM value is on record for O=C(Cn1nnc2ccccc21)NCc1ccc(Oc2cccnc2)c(F)c1
Data returned: 0.99

Data request: Tell us which relative solubility at 20 uM value is on record for CC(C)N(C)C(=O)C1CCN(C(=O)CCl)CC1
Data returned: 1

Data request: Tell us which relative solubility at 20 uM value is on record for COc1cccc(NC(=O)Nc2cccc(C#N)c2)c1
Data returned: 0.96

Data request: Tell us which relative solubility at 20 uM value is on record for CS(=O)(=O)NCCCN1CCCc2ccc(S(N)(=O)=O)cc21
Data returned: 1

----------
- STUDY SYSTEM: SARS-CoV-2 Main Protease (SARS-CoV-2)
- EXPERIMENTAL SETUP: 20.0 µM
EXPERIMENTAL ENDPOINT: inhibition (%)
# value in %; strip the unit string

Worked examples follow.
COMPOUND | inhibition, %
O=c1oc(Nc2ccccc2)nc2ccccc12 | 68.6
C=CC(=O)N(c1ccc(C(C)(C)C)cc1)C(C(=O)NCCC(=O)OCC)c1cccnc1 (stereo not given) | 27.8
O=C(CCl)N1CCN(Cc2cc(Cl)ccc2CNC(=O)N2CCOCC2)CC1 | 77.2

Data request: Tell us which inhibition value is on record for O=C(c1cc2sccc2s1)N1CCOC(CN2CCOCC2)C1 (stereo not given)
Data returned: 4.6

Data request: Tell us which inhibition value is on record for O=C(CCl)N1CCN(S(=O)(=O)c2cccs2)CC1
Data returned: 99.3

Data request: Tell us which inhibition value is on record for Cc1noc(C)c1CCNC(=O)Nc1cn(CC(C)C)c(=O)c2ccccc12
Data returned: 39

Data request: Tell us which inhibition value is on record for COC1CCN(c2ccc(S(N)(=O)=O)cc2)CC1
Data returned: 2.98

Data request: Tell us which inhibition value is on record for Cc1ccncc1NC(=O)Nc1cccc(Cl)c1
Data returned: 32.1

Data request: Tell us which inhibition value is on record for CC(C)Cn1cc(NC(=O)NCCCN2CCC(C)CC2)c2ccccc2c1=O
Data returned: -1.82

Data request: Tell us which inhibition value is on record for N#Cc1cnn(-c2ccccc2NC(=O)Cc2ccn[nH]2)c1N
Data returned: -9.14

Data request: Tell us which inhibition value is on record for Cc1cc(NC(=O)Cn2cncc2C)cc(C)c1Cl
Data returned: 2.9

Data request: Tell us which inhibition value is on record for O=C(Cc1cccc(Cl)c1)Nc1nnn[nH]1
Data returned: 23.3

Data request: Tell us which inhibition value is on record for O=C1C(=O)N(Cc2ccc(Br)cc2)c2c(Br)cccc21
Data returned: 1.5

----------
- STUDY SYSTEM: SARS-CoV-2 Main Protease (SARS-CoV-2)
- EXPERIMENTAL SETUP: 20.0 µM
Each record here notes measured inhibition.
# value in %; strip the unit string

Worked examples follow.
COMPOUND | EXPERIMENTAL ENDPOINT | NUMERIC RESULT
CCc1ccccc1Nc1nc(N)nc(CSc2nnc3ccccn23)n1 | inhibition | -0.805
Cc1ccncc1NC(=O)Cc1cccc(C#N)c1 | inhibition | 20.5
CCn1c(=O)n(CC(=O)NCc2cnccn2)c2ccccc21 | inhibition | 0
N#CC(C(=O)Nc1cccc(Cl)c1)C(=O)c1cccs1 (stereo unspecified) | inhibition | 0
O=C(Nc1ccnnc1)NC(Cc1ccccc1)C(=O)N1CCCC1 (stereo unspecified) | inhibition | 0

Data request: Tell us which inhibition value is on record for NS(=O)(=O)c1ccc(N2CCC([C@@H]3CCCO3)CC2)cc1 (stereo in doubt)
Data returned: 35

Data request: Tell us which inhibition value is on record for O=C(CCl)N1CCN(Cc2cc(O)ccc2O)CC1
Data returned: 63.9

Data request: Tell us which inhibition value is on record for C=CC(=O)N(c1ccc(C(C)(C)CC)cc1)C(C(=O)Nc1ccc(Cl)cc1)c1cccnc1 (stereo unspecified)
Data returned: 11.3

Data request: Tell us which inhibition value is on record for C=CC(=O)N(c1ccc(C2(C)CC2)cc1)C(C(=O)Nc1cccc(CC)c1)c1cccnc1 (stereo unspecified)
Data returned: 4.53

----------
- STUDY SYSTEM: SARS-CoV-2 Main Protease (SARS-CoV-2)
- EXPERIMENTAL SETUP: 20.0 µM
Each record here notes measured inhibition.
# value in %; strip the unit string

COMPOUND | inhibition / %
NS(=O)(=O)c1ccc2c(c1)CN(CC1CCN(C(=O)CCl)CC1)CC2 | 30.8
Cn1cnnc1CNC(=O)Nc1cc(C(F)(F)F)c[nH]c1=O | 7.84
Cc1nc(N)sc1CN1CCN(Cc2cccc(Cl)c2)C1=O | 5.38

Data request: Tell us which inhibition value is on record for C=CC(=O)N(C(C(=O)NC(C)(C)C)c1cccnc1)[C@@H]1C[C@@H]1c1ccccc1 (stereo in doubt)
Data returned: -14.4

Data request: Tell us which inhibition value is on record for Cc1ccc(NC(=O)Nc2cccnc2)s1
Data returned: 1.9

Data request: Tell us which inhibition value is on record for O=C(CCl)N1CCN(C(c2ccccc2)C2CCOCC2)CC1 (centres undefined)
Data returned: 80.8

----------
Each record here notes measured inhibition.
- STUDY SYSTEM: SARS-CoV-2 Main Protease (SARS-CoV-2) (UniProt P0DTD1)
- EXPERIMENTAL SETUP: 20.0 µM
# value in %; strip the unit string

COMPOUND | STUDY SYSTEM | EXPERIMENTAL ENDPOINT | UNIT STRING | NUMERIC RESULT
Cc1ccncc1NC(=O)Cc1cccc(Br)c1 | SARS-CoV-2 Main Protease (SARS-CoV-2) (UniProt P0DTD1) | inhibition | % | 56.2
C=CC(=O)N(c1ccc(C(C)(C)C)cc1)C(C(=O)NC1CCOCC1)c1cccnc1 (stereo not given) | SARS-CoV-2 Main Protease (SARS-CoV-2) (UniProt P0DTD1) | inhibition | % | 9.01
CCOC(=O)c1ccc(NC(=O)CC2SC(=O)N(c3ccccc3)C2=O)cc1 (stereo not given) | SARS-CoV-2 Main Protease (SARS-CoV-2) (UniProt P0DTD1) | inhibition | % | 79
COC(=O)c1c(C)nn(-c2ccccc2)c1-c1cc(C)on1 | SARS-CoV-2 Main Protease (SARS-CoV-2) (UniProt P0DTD1) | inhibition | % | 18.8
Cc1cn2c(-c3cccnc3)c(-c3ccc(F)cc3)nc2s1 | SARS-CoV-2 Main Protease (SARS-CoV-2) (UniProt P0DTD1) | inhibition | % | -2.02
COc1ccccc1OCCN1C(=O)C(=O)c2cc(Br)cc(C)c21 | SARS-CoV-2 Main Protease (SARS-CoV-2) (UniProt P0DTD1) | inhibition | % | -2.64
Cc1cnn(C)c1NC(=O)Cc1cccc(Cl)c1 | SARS-CoV-2 Main Protease (SARS-CoV-2) (UniProt P0DTD1) | inhibition | % | 3.11
O=C(O)[C@@H](Cc1nc(=O)cc[nH]1)NC[C@@H]1C[C@@H]2C=C[C@H]1C2 (stereo in doubt) | SARS-CoV-2 Main Protease (SARS-CoV-2) (UniProt P0DTD1) | inhibition | % | 13.7
O=C(CCn1ccnn1)NC(CN1CCOCC1)c1ccccc1 (stereo not given) | SARS-CoV-2 Main Protease (SARS-CoV-2) (UniProt P0DTD1) | inhibition | % | 2.31
O=C(Cc1c[nH]c2ncccc12)N1CCC(N2CCCS2(=O)=O)CC1 | SARS-CoV-2 Main Protease (SARS-CoV-2) (UniProt P0DTD1) | inhibition | % | 18.5

Consider the record given below.
Data request: Tell us which inhibition value is on record for O=C(NCCN1CCN(C(=O)CCl)CC1)c1cccc2ccccc12
Data returned: 6.97

meta.source: the COVID Moonshot data (paper PMC11187573)
